Data provenance is patent US12139520B2.

Item-by-item account of hAM1R EC50 (cAMP)
target: hAM1R (human, UniProt Q16602); assay: cell-based or functional assay
Numbered stars: 1 amine (or outer) side, 2 acyl side, 3 side chain; on linkers, the order of the positions; unused ones are H or OH. Bridge positions count the residues as written; N and C are the ends. Square brackets hold non-standard residues; d marks the D form. Side chains are listed from the residue outwards. Ends that are not written are not given here. * marks the point of attachment. C20 diacid = O=C(O)CCCCCCCCCCCCCCCCCCC(=O)*; γGlu = O=C(O)[C@H](CCC(=O)[*:2])N[*:1]; Hyp = O=C(O)[C@@H]1C[C@@H](O)CN1; Cit = NC(=O)NCCC[C@H](N)C(=O)O; AEEA = NCCOCCOCC(=O)O

binder	relationSymbol	hAM1R EC50 (cAMP) [nM]
GCRFGTCTVQRLAHQIYQFTDKDKDNVAPRSKVSPNGY [SEQ ID NO: 384]	=	1.09
GCRTGTCTVQ[Cit]LAHQIYQFTDKDKDNVAPRSNVSPNG[Hyp]-NH2 (disulfide 2-7 (inferred); ends not checked) [SEQ ID NO: 304]	>	5000
KCNTATCTVQRLAEQIYQFTDKDKDK([AEEA-AEEA-γGlu-C20 diacid])VAPPTNVGSNG[Hyp]-NH2 (disulfide 2-7 (inferred); not fully specified (N-terminus); ends not checked) [SEQ ID NO: 41]	>	5000
{C20 diacid-γGlu}-GCRFATCTVQRLAHQIYQFTDKDKDNVAPRTKVGPQGY-NH2 (disulfide 2-7 (inferred); ends not checked) [SEQ ID NO: 380]	=	0.162
